All values here come from ChEMBL document CHEMBL3832761.

system: Mycobacterium tuberculosis; assay: AntiMycobacterium tuberculosis activity 1-week GAST/Fe MIC (uM); format: functional; details: 168 h
quantityKind: MIC

Dear colleague, I am looking for the recorded MIC of the following compound: Cc1cc(C)c2cc(C(=O)NC3CCCCCCC3)[nH]c2c1
< 0.02 µM

Check CCOC(=O)NC(=O)c1ccsc1NC(=O)c1nc2ccccc2s1 too.
< 0.02 µM

Check CCc1nc2ccc(Cl)cn2c1C(=O)NCc1ccc(N2CCC(c3ccc(OC(F)(F)F)cc3)CC2)cc1 too.
< 0.02 µM

====

test system: MRC5; assay: MRC5 CC50 (uM) Cytotoxicity; type: functional; details: Homo sapiens
quantityKind: CC50

Dear colleague, I am looking for the recorded CC50 of the following compound: COC(=O)c1cccc2oc(-c3cccc(OC)c3NC(=O)c3cc(-c4ccccc4)on3)nc12
> 32 µM

Check CC1CCCCN1C(=O)NCCc1coc(-c2ccc(F)cc2)n1 (stereo unspecified) too.
> 64 µM

Check Cc1noc(C)c1COc1cccc(C(=O)N=c2[nH]cccc2C)c1 too.
> 64 µM

Check CCOC(=O)c1noc(N)c1-c1ccccc1 too.
> 64 µM

Check Cc1nc(-c2ccccn2)nc(NCCc2ccc(S(C)(=O)=O)cc2)c1Cl too.
> 32 µM

Check CCc1ccccc1-n1c(C)cn2c3c(=O)n(C(C(=O)OC)C(C)C)c(=O)n(C)c3nc12 (stereo unspecified) too.
> 32 µM

Check Cc1nn2c(O)c3c(nc2c1-c1ccc(F)cc1)CCCC3 too.
> 64 µM

Check Nc1ccc2ncnc(Nc3ccc(OCc4cccc(F)c4)c(Cl)c3)c2c1 too.
> 32 µM

Check CO[C@@H]1CN(c2ccc(C#CC3(O)CN4CCC3CC4)c(Cc3ccccc3)n2)C[C@H]1O (stereo partly specified) too.
> 32 µM

Check COc1ccc(S(=O)(=O)Nc2ccc(CN3CCN(C(=O)c4cccc(C#N)c4)CC3)cc2)cc1 too.
> 64 µM

Check FC(F)(F)c1cc(NCCc2ccccc2)nc(-c2ccccn2)n1 too.
> 32 µM
